Cited source for all entries: ChEMBL document CHEMBL3046051

# Tested on: Candida albicans
# test_details: Antifungal activity against Candida albicans 227 by paper disk method relative to voriconazole
# Assay type: functional
readout_name: inhibition (INH) (%)
Report as a plain number; the unit % is understood.

These recorded examples may help you get a feel for the data.
smiles_string=C=CN1C(C)=C(C(C)=O)NN1c1ccc(C)cc1 readout_name="inhibition (INH)" result=-56.25
smiles_string=C=CN1C(C)=C(C(C)=O)NN1c1ccc(C(=O)O)cc1 readout_name="inhibition (INH)" result=6.25
smiles_string=C=CN1C(C)=C(C(C)=O)NN1c1ccc([N+](=O)[O-])cc1 readout_name="inhibition (INH)" result=0
smiles_string=C=CN1C(C)=C(C(C)=O)NN1c1cccc(Cl)c1 readout_name="inhibition (INH)" result=-93.75
smiles_string=C=CN1C(C)=C(C(C)=O)NN1c1ccc(OC)cc1 readout_name="inhibition (INH)" result=-37.5
smiles_string=C=CN1C(C)=C(C(C)=O)NN1c1ccc(Cl)cc1 readout_name="inhibition (INH)" result=-87.5

Q) If you can, please state the reported inhibition (INH) value of C=CN1C(C)=C(C(C)=O)NN1c1ccc(O)cc1 .
A) 25

Q) If you can, please state the reported inhibition (INH) value of C=CN1C(C)=C(C(C)=O)NN1c1cccc(C)c1 .
A) -62.5

Q) If you can, please state the reported inhibition (INH) value of C=CN1C(C)=C(C(C)=O)NN1c1cccc(O)c1 .
A) 18.75

Q) If you can, please state the reported inhibition (INH) value of C=CN1C(C)=C(C(C)=O)NN1c1cccc(OC)c1 .
A) -43.75

Q) If you can, please state the reported inhibition (INH) value of C=CN1C(C)=C(C(C)=O)NN1c1cccc([N+](=O)[O-])c1 .
A) -6.25

Q) If you can, please state the reported inhibition (INH) value of C=CN1C(C)=C(C(C)=O)NN1c1ccccc1 .
A) -31.25
